Test system: SNB-19 CNS
Experiment notes: NCI-60 one-dose screen, 48 h
Protocol conditions: 10 µM unless noted
Experimental: Growth inhibition of the SNB-19 human tumor cell line is measured as a screen for anti-cancer activity. Cells are grown in 96 well plates and exposed to the test compound for 48 hours. Compounds are tested at a single concentration, which is 10^-5 M for most compounds. The reported endpoint is percent growth (GI% or GIPRCNT), where numbers from 0 - 100% represent growth inhibition, and numbers from -100% - 0 represent cell death. For example, a value of 40 represents 60% growth inhibition. […]
The panel holds about 83,000 compounds, 20% with a hit somewhere; the sample as a whole holds those more often. Active and inactive are the calls of the source. Rule for the calls: active = growth percent below 10; inactive = the rest.
Your reply should match one of these outcome classes. active, inactive

O=S(=O)(Nc1cccc2ccccc12)c1ccc(-c2cnc(C3CC3)o2)cc1	inactive
COc1ccc(NCc2cn(-c3ccc(C(=O)O)cc3)nc2-c2cc(C(F)(F)F)cc(C(F)(F)F)c2)cc1	inactive
C#C[C@]1(O)CC[C@H]2[C@@H]3CC=C4c5sc(-c6ccc7c(c6)OCO7)nc5CC[C@]4(C)[C@H]3CC[C@@]21C	inactive

Q: Test call, this compound: CC1=NC2=NN3C(=NN2C(c2ccccc2)=C1)N=NC(c1ccc(Br)cc1)=C3c1ccc(Br)cc1
Result: inactive

Q: Test call, this compound: CCc1nn2c(C)cc(C)nc2c1Cc1ccc(/C=C/CN2CCN(CCOCCOCCN3CCN(C/C=C/c4ccc(Cc5c(CC)nn6c(C)cc(C)nc56)cc4)CC3)CC2)cc1
Result: inactive
